value.type: melting point

Record excerpt, results attached:
# molecule, value.type, observed.measurement
records = [
    ("O=C(O)C(Cc1ccccc1)Oc1ccc2cc(-c3oc4ccccc4c3Br)ccc2c1Br (stereo unspecified)", "melting point", "206 to 209 °C"),
    ("Cc1cc(Br)c(S(N)(=O)=O)cc1C(=O)O", "melting point", "237 °C"),
    ("CC(=O)C(=Cc1ccccc1[N+](=O)[O-])C(=O)OCCCl", "melting point", "82 to 84 °C"),
    ("O=C(O)CCC(=O)N[C@@H]1CN2C(=O)N(c3cc(Cl)nc(Cl)c3)C(=O)[C@@]2(Cc2ccc(OC(F)(F)F)cc2)C1", "melting point", "102 °C"),
    ("CC(C)(O)c1cccc(-c2ccc3nc(-c4ccc(Cl)cc4)cn3c2)c1Cl", "melting point", "230 to 231 °C"),
    ("O=C(O)CSCn1cnnn1", "melting point", "98 to 101 °C"),
    ("CCc1[nH]n(-c2c(Cl)cc(Cl)cc2Cl)c2nc(Cc3cccnc3)nc(=O)c1-2", "melting point", "257 to 260 °C"),
    ("CCOC(=O)C1Cc2ccccc2N1C(=O)c1c(O)c2cc(OC)cc3c2n(c1=O)CCO3 (stereo unspecified)", "melting point", "135 to 138 °C"),
]

Dear reader, for each entry below, please note its melting point.
1. CCOCc1cc(O)cc2cc(-c3ccc(O)cc3)oc12
2. COc1ccc(-c2ncccc2C=C(Cc2cc3c(cc2OC)OCO3)C(=O)O)c(OCc2ccccc2C(=O)O)c1
3. CNCc1cn(-c2ccccc2)nc1OCc1ccc(OCc2nc(-c3ccco3)oc2C)c(OC)c1
4. COC(=O)CCCCCCCCCCCCCCCCCCCCCOS(=O)(=O)c1ccc(C)cc1
5. CC(COc1cccc(Oc2ccccc2)c1)OS(N)(=O)=O (stereo unspecified)
6. CC(C)n1nc(-c2sc(C(=O)NC3CCCCC3)nc2-c2ccccc2)ccc1=O

Response given:
1: 166 to 168 °C; 2: 135 to 140 °C; 3: 103 to 104 °C; 4: 74 to 76 °C; 5: 81 to 84 °C; 6: 225 to 226 °C

* * *

value.type: melting point

Record excerpt, results attached:
# compound, value.type, observed.measurement
data = [
    ("CCCCC(CC)C(=O)Nc1ccc2ccn(Cc3ccc(C(=O)CS(=O)(=O)c4ccccc4)cc3OC)c2c1 (stereo unspecified)", "melting point", "131 to 133 °C"),
    ("COc1cccc(OC)c1C(=O)P(=S)(CC(C)C)C(=O)c1c(OC)cccc1OC", "melting point", "145 to 147 °C"),
    ("COCCn1nc2c(N)nc3ccccc3c2c1CCCCCl", "melting point", "156 to 157 °C"),
    ("O=C1NC(=O)c2c1c(-c1ccccc1Cl)cc1c2c2cc(O)ccc2n1CCSc1ccccc1", "melting point", "262 to 264 °C"),
]

Dear reader, for each entry below, please note its melting point.
1. O=C1N(CCCCCl)CCN1C1CCCCC1
2. O=Cc1ccc(-c2ccc(C=O)s2)s1
3. CCN(CC)CCOc1cccc2c1c1cc(Cl)ccc1n2Cc1ccccc1
4. O=C(O)C1=Cc2ccc(-c3ccccc3)cc2OC1C(F)(F)F (stereo unspecified)
5. CN1C(=O)Cc2ccccc21
6. OC(COc1ccc(-c2cc[nH]n2)cc1)CN1CCN(c2ccc(Cl)cc2)CC1 (stereo unspecified)

Response given:
30 to 35 °C
213 to 214 °C
96 to 97.5 °C
209 to 212 °C
83 to 84.5 °C
211 to 212 °C
